tested on: Saccharomyces cerevisiae; experiment: protein stability index of tFT-peptide fusion (C-terminal peptide) (PSI (0-1 scale)); higher = more stable (slower turnover); settings: genetic background: das1 deletion; temperature: 30 C
Please enter yes where protein stability index is greater than or equal to 0.6, and no where it is lower.

# example entries with known answers
Inquiry: Is the recorded value of protein stability index equal to or greater than 0.6 for this sequence? VVFVVGAPPVLC
Reply text: no

Inquiry: Is the recorded value of protein stability index equal to or greater than 0.6 for this sequence? SWGEQDRLTGYI
Reply text: yes

Inquiry: Is the recorded value of protein stability index equal to or greater than 0.6 for this sequence? LVLFYLWSSVWA
Reply text: no

Inquiry: Is the recorded value of protein stability index equal to or greater than 0.6 for this sequence? DVPLFLPLPVSV
Reply text: no

Inquiry: Is the recorded value of protein stability index equal to or greater than 0.6 for this sequence? RKGQNKKRNKIY
Reply text: yes

***
Inquiry: Is the recorded value of protein stability index equal to or greater than 0.6 for this sequence? LLLHFMFSIFWF
Reply text: no

Inquiry: Is the recorded value of protein stability index equal to or greater than 0.6 for this sequence? VSFLLYNFLSVF
Reply text: no

---

system: Saccharomyces cerevisiae; experiment: protein stability index of tFT-peptide fusion (C-terminal peptide) (PSI (0-1 scale)); higher = more stable (slower turnover); settings: genetic background: doa10 deletion; temperature: 30 C
Please enter fulfilled where protein stability index is greater than or equal to 0.3, and not fulfilled where it is lower.

# example entries with known answers
Inquiry: Is the recorded value of protein stability index equal to or greater than 0.3 for this sequence? LGDPPCRMIVVR
Reply text: fulfilled

Inquiry: Is the recorded value of protein stability index equal to or greater than 0.3 for this sequence? KKKKQKKNNNKR
Reply text: fulfilled

Inquiry: Is the recorded value of protein stability index equal to or greater than 0.3 for this sequence? LFLSAFFYLLVW
Reply text: not fulfilled

Inquiry: Is the recorded value of protein stability index equal to or greater than 0.3 for this sequence? LLSYMVSLVVYL
Reply text: not fulfilled

Inquiry: Is the recorded value of protein stability index equal to or greater than 0.3 for this sequence? WFCYFSLYVFLL
Reply text: not fulfilled

Inquiry: Is the recorded value of protein stability index equal to or greater than 0.3 for this sequence? LFKFCLGIPLFL
Reply text: fulfilled

***
Inquiry: Is the recorded value of protein stability index equal to or greater than 0.3 for this sequence? VLRCIWLCFLSV
Reply text: fulfilled

Inquiry: Is the recorded value of protein stability index equal to or greater than 0.3 for this sequence? SVLVWFLVFLVW
Reply text: not fulfilled

Inquiry: Is the recorded value of protein stability index equal to or greater than 0.3 for this sequence? RKWLFFRSWRYV
Reply text: not fulfilled

---

Documented protein stability index across a set of sequences
tested on: Saccharomyces cerevisiae; experiment: protein stability index of tFT-peptide fusion (C-terminal peptide) (PSI (0-1 scale)); higher = more stable (slower turnover); conditions: genetic background: wild type; temperature: 30 C
// response body must contain only the number

Here's what some known entries look like.
Inquiry: Annotate the sequence GVLGSIQLFLGI with its measured protein stability index.
Reply text: 0.699

Inquiry: Annotate the sequence LLSYMVSLVVYL with its measured protein stability index.
Reply text: 0.295

***
Inquiry: Annotate the sequence CPGPPSLSPRPS with its measured protein stability index.
Reply text: 0.672

Inquiry: Annotate the sequence PTPLLTQHPRRP with its measured protein stability index.
Reply text: 0.72

Inquiry: Annotate the sequence RRMVRLDACASV with its measured protein stability index.
Reply text: 0.659

Inquiry: Annotate the sequence SRFGSVSCRPSI with its measured protein stability index.
Reply text: 0.713

Inquiry: Annotate the sequence ATACSIMISNAV with its measured protein stability index.
Reply text: 0.662

---

system: Saccharomyces cerevisiae; assay: protein stability index of tFT-peptide fusion in wild type (PSI (0-1 scale)); higher = more stable (slower turnover); conditions: genetic background: wild type
Value kind: protein stability index
// response body must contain only the number

Here's what some known entries look like.
Inquiry: Annotate the sequence CLVSLPVLLFFR with its measured protein stability index.
Reply text: 0.0558

Inquiry: Annotate the sequence RLIQPLPVQFLA with its measured protein stability index.
Reply text: 0.139

Inquiry: Annotate the sequence VNGAVGGWRLVG with its measured protein stability index.
Reply text: 0.141

Inquiry: Annotate the sequence KFHKKGQKQKIN with its measured protein stability index.
Reply text: 0.139

Inquiry: Annotate the sequence LKILRQKLNHQN with its measured protein stability index.
Reply text: 0.187

***
Inquiry: Annotate the sequence LKILRKKMNHQN with its measured protein stability index.
Reply text: 0.224

Inquiry: Annotate the sequence PSIAASFWRVVG with its measured protein stability index.
Reply text: 0.143

Inquiry: Annotate the sequence KKHKKGQKQVIN with its measured protein stability index.
Reply text: 0.579

---

test system: Saccharomyces cerevisiae; test: protein stability index of tFT-peptide fusion (C-terminal peptide) (PSI (0-1 scale)); higher = more stable (slower turnover); conditions: genetic background: wild type; temperature: 30 C
Please enter TRUE where protein stability index is greater than or equal to 0.7, and FALSE where it is lower.

# example entries with known answers
Inquiry: Is the recorded value of protein stability index equal to or greater than 0.7 for this sequence? VSCYYVFLIPFW
Reply text: FALSE

Inquiry: Is the recorded value of protein stability index equal to or greater than 0.7 for this sequence? GSSCHFPARCPV
Reply text: FALSE

Inquiry: Is the recorded value of protein stability index equal to or greater than 0.7 for this sequence? AHADISPIHNLH
Reply text: FALSE

***
Inquiry: Is the recorded value of protein stability index equal to or greater than 0.7 for this sequence? RGFPPPPLLSSR
Reply text: TRUE

Inquiry: Is the recorded value of protein stability index equal to or greater than 0.7 for this sequence? GLNGGRLEGERR
Reply text: TRUE

Inquiry: Is the recorded value of protein stability index equal to or greater than 0.7 for this sequence? RCGLSGGRPPVL
Reply text: FALSE

Inquiry: Is the recorded value of protein stability index equal to or greater than 0.7 for this sequence? FCICRFLFIFLG
Reply text: FALSE

Inquiry: Is the recorded value of protein stability index equal to or greater than 0.7 for this sequence? IRFCILRRLGRH
Reply text: FALSE

Inquiry: Is the recorded value of protein stability index equal to or greater than 0.7 for this sequence? ALRCRPVYHIDG
Reply text: FALSE

Inquiry: Is the recorded value of protein stability index equal to or greater than 0.7 for this sequence? FPGFHPIFPPPL
Reply text: FALSE

---

tested on: Saccharomyces cerevisiae; experiment: protein stability index of tFT-peptide fusion (C-terminal peptide) (PSI (0-1 scale)); higher = more stable (slower turnover); conditions: genetic background: wild type; temperature: 30 C
Documented protein stability index across a set of sequences
// response body must contain only the number

Here's what some known entries look like.
Inquiry: Give protein stability index; test system Saccharomyces cerevisiae; sequence LLNLQEEADLPS
Reply text: 0.724

Inquiry: Give protein stability index; test system Saccharomyces cerevisiae; sequence SLCPVTPPSVGF
Reply text: 0.656

Inquiry: Give protein stability index; test system Saccharomyces cerevisiae; sequence KAIVKKCTDSED
Reply text: 0.679

Inquiry: Give protein stability index; test system Saccharomyces cerevisiae; sequence RGGGVGRGLGGK
Reply text: 0.605

Inquiry: Give protein stability index; test system Saccharomyces cerevisiae; sequence SLRPFFPPLPRP
Reply text: 0.666

Inquiry: Give protein stability index; test system Saccharomyces cerevisiae; sequence PPPAPPVRPDRS
Reply text: 0.686

Inquiry: Give protein stability index; test system Saccharomyces cerevisiae; sequence WSESVKEASFTS
Reply text: 0.756

Inquiry: Give protein stability index; test system Saccharomyces cerevisiae; sequence PPPPPAPTTSVP
Reply text: 0.683

***
Inquiry: Give protein stability index; test system Saccharomyces cerevisiae; sequence RRFKIDKNKIKL
Reply text: 0.683

Inquiry: Give protein stability index; test system Saccharomyces cerevisiae; sequence CLVLDILSETWL
Reply text: 0.71

Inquiry: Give protein stability index; test system Saccharomyces cerevisiae; sequence HILDDHVRISNA
Reply text: 0.685

Inquiry: Give protein stability index; test system Saccharomyces cerevisiae; sequence YRNVLLVLNYWS
Reply text: 0.491

Inquiry: Give protein stability index; test system Saccharomyces cerevisiae; sequence VYWRGLHLQRLL
Reply text: 0.418

Inquiry: Give protein stability index; test system Saccharomyces cerevisiae; sequence DLRRYRTLIPCK
Reply text: 0.447

---

Documented protein stability index across a set of sequences
system: Saccharomyces cerevisiae; experiment: protein stability index of tFT-peptide fusion (C-terminal peptide) (PSI (0-1 scale)); higher = more stable (slower turnover); details: genetic background: wild type; temperature: 30 C
// response body must contain only the number

Inquiry: Annotate the sequence FTLVGYDKEFSD [ADH6 C-terminal 12 aa] with its measured protein stability index.
Reply text: 0.701

Inquiry: Annotate the sequence MFNQGKVEEMDF [SML1 C-terminal 12 aa] with its measured protein stability index.
Reply text: 0.692

Inquiry: Annotate the sequence SLQKIDATYIRG [SDS22 C-terminal 12 aa] with its measured protein stability index.
Reply text: 0.687

Inquiry: Annotate the sequence KAPKSPEVIEID [UFD1 C-terminal 12 aa] with its measured protein stability index.
Reply text: 0.684

Inquiry: Annotate the sequence TVQSKLGDHGFN [PEP7 C-terminal 12 aa] with its measured protein stability index.
Reply text: 0.707

Inquiry: Annotate the sequence SKLNAVHTANEK [SEC8 C-terminal 12 aa] with its measured protein stability index.
Reply text: 0.686

***
Inquiry: Annotate the sequence RSTFLMHGRLAT [MAK3 C-terminal 12 aa] with its measured protein stability index.
Reply text: 0.702

Inquiry: Annotate the sequence RQFKEILTVKEE [RRP40 C-terminal 12 aa] with its measured protein stability index.
Reply text: 0.687

Inquiry: Annotate the sequence GVSFHVQVTMPQ [TRS33 C-terminal 12 aa] with its measured protein stability index.
Reply text: 0.704

Inquiry: Annotate the sequence FDAVTKTLEKYA [YKR070W C-terminal 12 aa] with its measured protein stability index.
Reply text: 0.688

Inquiry: Annotate the sequence YQGVIYGIDGDQ [POP2 C-terminal 12 aa] with its measured protein stability index.
Reply text: 0.689

Inquiry: Annotate the sequence RYVIFQSCGLIL [MRX8 C-terminal 12 aa] with its measured protein stability index.
Reply text: 0.683

Inquiry: Annotate the sequence AKDFLEKRGISK [PAM18 C-terminal 12 aa] with its measured protein stability index.
Reply text: 0.705

Inquiry: Annotate the sequence MLGVGSLLFLAF [ROT1 C-terminal 12 aa] with its measured protein stability index.
Reply text: 0.691

Hello, the source for this data is the supplement of paper PMC10724198, in case you need it.
